# Target: T1, recombinant human VTCN1-his protein (human, UniProt Q7Z7D3 25-259, limits assumed)
# T1 construct: also called human VTCN1 protein; recombinant VTCN1
# T1 sequence: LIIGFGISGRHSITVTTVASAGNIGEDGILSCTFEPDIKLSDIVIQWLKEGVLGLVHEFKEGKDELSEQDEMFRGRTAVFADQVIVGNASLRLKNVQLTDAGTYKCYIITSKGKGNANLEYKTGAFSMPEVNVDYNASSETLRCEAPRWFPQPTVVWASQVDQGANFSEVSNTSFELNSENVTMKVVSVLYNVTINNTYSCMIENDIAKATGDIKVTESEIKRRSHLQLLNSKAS
# Measurement Protocol: BLI (OCTET Red), antibody on Protein A biosensor, recombinant VTCN1-his in solution
Value Type: Kd (nM)
Write the number in nM without appending the unit.

Example cases with answers are listed next.
Binder	Value Type	Reported Measurement
4C6 (antibody, V domains shown, Recombinant mouse antibody made in CHO cells) VH: QMQLQESGPGLVQPSQSLSITCTVSGFSLTSYGIHWVRQSPGKGLEWLGVIWSSGSTDYNAAFISRLSISKDNSKSQVFFKMNSLQSDDTAIHYCARDITTIAEGFAYWGQGTLVTVSS VL: NIVMTQSPKSMSMSVGERVTLSCKASENVGTYVSWYQQKPEQSPKLLIYGASNRYTGVPDRFTGSGSATDFTLTISSVQAEDLADYHCGQSYSYPFTFGSGTKLEIK	Kd	14
3G10 (antibody, V domains shown, Recombinant mouse antibody made in CHO cells) VH: QIQLKESGPGLVQPSQSLSITCTVSGFSLTSYGVHWVRQSPGKGLEWLGVIWSGGYTDYNSAFISRLSISKDNSKSQVFFKMNSLQADDTAIYYCARDITTIVEGFAYWGQGTLVTVSA VL: IIVMTQSPKSMSMSVGERITLNCKASENVGTYVSWYQQKPEQSPKLLIYGASNRYTGVPDHFTGSGSATDFTLTISSVQAEDLADYHCGQTYSYPFTFGSGTKLEIK	Kd	12
6E2 (antibody, V domains shown, Recombinant mouse antibody made in CHO cells) VH: QIQLQESGPGLVQPSQSLSITCTVSGFSLTSYGVQWVRQSPGKGLEWLGVIWSGGSTDYNAAFISRLSISKDNSKSQVFFKMNSLQADDTAIYYCARDISTIVEGFAHWGQGTLVTVSS VL: NIVMTQSPKSMSMSVGERVTLSCKASEKVGTYVSWYQQKPEQSPKLLIYGASNRYTGVPDRFTGSGSATDFTLTISSVQAEDLADYHCGQSYRYPFTFGSGTKLEIK	Kd	8
7F10 (antibody, V domains shown, Recombinant mouse antibody made in CHO cells) VH: QVQLQQSGPGLVQPSQSLSITCTVSGFSLTSYGIHWVRQSPGKGLEWLGVIWSSGSTDYNAAFISRLSISKDNSKSQVFFKMNSLQSDDTAIHYCARDITTIAEGFAYWGQGTLVTVSA VL: NIVMTQSPKSMSMSVGERVTLSCKASENVGTYVSWYQQKPEQSPKLLIYGASNRYTGVPDRFTGSGSATDFTLTISSVQAEDLADYHCGQSYSYPFTFGSGTKLEIK	Kd	5

Could you now consider this next binder?
Can you look up the measured Kd of 5A12 (antibody, V domains shown, Recombinant mouse antibody made in CHO cells) VH: QVQLQQSGPGLVQPSQSLSITCTVSGFSLTSYGVQWVRQSPGKGLEWLGVIWSSGSTDYNAAFISRLSINKDNSKSQVFFKMNSLQPDDTAIYYCARDITTIVEGFAYWGQGTLVTVSA VL: IIVMTQSPKSMSMSVGERVTLSCKASENVGTYVSWYQQKPEQSPKLLIYGASNRYTGVPDRFTGSGSATDFTLTISSVQAEDLADYHCGQSYSYPFTFGSGTKLEIK for me? 4

Where do these numbers come from? They come from patent US20240294644A1.
